# credit: PubChem BioAssay AID720648

target: Disintegrin and metalloproteinase domain-containing protein 17 (Homo sapiens) (UniProt P78536); assay: inhibition of ADAM17 peptide cleavage – biochemical, QFRET, primary screen (AID 720648); conditions: recombinant ADAM17, EDANS/DABCYL FRET peptide cleavage; at 6.95 µM; hits give high values;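 further: 0% = DMSO-only wells as the low control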
Sequence (P78536 215-824 limits assumed): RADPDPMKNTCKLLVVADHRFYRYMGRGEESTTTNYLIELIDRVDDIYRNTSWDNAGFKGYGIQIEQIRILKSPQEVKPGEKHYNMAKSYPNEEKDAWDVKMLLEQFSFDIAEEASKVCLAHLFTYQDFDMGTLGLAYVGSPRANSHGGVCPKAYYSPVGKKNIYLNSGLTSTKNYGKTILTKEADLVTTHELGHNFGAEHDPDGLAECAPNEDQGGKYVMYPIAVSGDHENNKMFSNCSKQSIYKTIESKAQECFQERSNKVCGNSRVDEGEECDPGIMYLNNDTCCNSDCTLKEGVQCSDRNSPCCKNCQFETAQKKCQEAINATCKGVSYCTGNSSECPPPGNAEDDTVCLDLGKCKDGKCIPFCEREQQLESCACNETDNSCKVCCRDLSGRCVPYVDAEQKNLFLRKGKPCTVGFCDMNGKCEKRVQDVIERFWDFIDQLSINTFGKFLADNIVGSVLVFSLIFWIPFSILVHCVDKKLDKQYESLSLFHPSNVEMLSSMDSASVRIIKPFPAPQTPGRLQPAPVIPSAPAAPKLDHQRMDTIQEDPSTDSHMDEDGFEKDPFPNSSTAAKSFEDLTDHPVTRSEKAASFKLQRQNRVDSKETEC
The whole screen tested about 370,000 compounds, of which about 3,100 (0.84%) were called active. Only a selection was taken, and actives are over-represented in it overall.
metric.name: inhibition (%)
Give the value in % but do not write % after it.

> print(dat)
                                   compound  metric.name  readout.units  value
1  CC(C)(C)CC(=O)Nc1nc(C(N)Cc2ccc(C(F)(F)F)cc2)cs1 (stereo not given)   inhibition              %   -1.9
2  COCCNC(=O)C(c1ccc(C)o1)N(Cc1ccccc1)C(=O)Cn1nnc2ccccc21 (stereo not given)   inhibition              %   9.14
3  COc1ccc(CC(N)c2csc(NC(=O)Nc3ccc(C(C)C)cc3)n2)cc1 (stereo not given)   inhibition              %   2.77

So for `C=CS(=O)(=O)N(Cc1nnn(Cc2ccccc2)c1Br)[C@H](C(=O)OC)C(C)C` , the logged inhibition turned out to be 2.02

inhibition in this record for `C[C@@H]1CN([C@@H](C)CO)C(=O)c2cccc(NC(=O)Nc3cccc4ccccc34)c2O[C@H]1CN(C)S(=O)(=O)c1ccccc1F` : -10.5

Recorded result, `COC(=O)[C@]1(C#N)CC(=O)N(CC2CCCCC2)[C@@H]1c1ccccc1` , inhibition: 4.54

// inhibition value for `CN(CC(=O)Nc1ccc(S(=O)(=O)N2CCCC2)cc1)Cc1ccc(Cl)c(Cl)c1` : 4.22

Lookup result for `CCOC(=O)c1csc(NC(=O)Nc2cccc(OC)c2)n1` ; measured inhibition: -0.26

Entry `O=C(Cc1ccc(Cl)c(Cl)c1)Nc1ccc(SC(F)F)cc1` ; inhibition = 8.77

inhibition in this record for `N#C/C(=C\c1cccnc1)C(=O)Nc1ccc(SC(F)F)cc1` : 2.16

* * *

Listing of recorded inhibition by entry.
target: Disintegrin and metalloproteinase domain-containing protein 17 (Homo sapiens) (UniProt P78536); experiment: inhibition of ADAM17 peptide cleavage – biochemical, QFRET, primary screen (AID 720648); details: recombinant ADAM17, EDANS/DABCYL FRET peptide cleavage; at 6.95 µM; hits give high values;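 further: 0% = DMSO-only wells as the low control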
The whole screen tested about 370,000 compounds, of which about 3,100 (0.84%) were called active. What follows is part of a selection rich in actives, with near analogues and random picks from the rest.
Only the number, expressed in %, is required.

Solved entries (count: 5):
> print(dat)
                                   compound  metric.name  value
1  COC(=O)C1CN(CC(C)C)CCS(=O)(=O)N1Cc1ccc(F)cc1 (centres undefined)   inhibition  -5.05
2  CCc1cccc(NC(=O)COC(=O)C2CCN(c3ccc(C(F)(F)F)cn3)CC2)c1   inhibition   8.96
3  Cn1nc(C(F)(F)F)c(C(=O)Nc2cccc(C(F)(F)F)c2)c1SCc1ccc(Cl)cc1   inhibition   19.8
4  C=C1C(C(C)C)N(C)C2=NC(c3ccccc3)CC(=O)N12 (centres undefined)   inhibition  -5.62
5  CN1C[C@]2(C=C3CCCCC3n3c(=O)n(-c4ccccc4)c(=O)n32)N=C1NC(=O)c1ccccc1 (some centres undefined)   inhibition  -0.93

Recorded inhibition (compound `N#C/C(=C/c1ccc(N2CCCCC2)o1)C(=O)NCCc1c[nH]c2ccccc12` ): 15.4

Consider `O=S1(=O)c2c(NCc3ccco3)cccc2Oc2ccccc2CN1Cc1cn(Cc2cccc(C(F)(F)F)c2)nn1` . Its measured inhibition is -1.67

// `C=CCN1C(=O)[C@H](CC(=O)N2CCN(C(=O)OCC)CC2)[C@@]2(C(=O)OCC)CCCC=C12` : inhibition value = -4.33

Sure, the documented inhibition for `COCCCNC(=O)/C(C#N)=C/c1c(N2CCCCCC2)nc2ccccn2c1=O` is -451

Memo: `COc1cccc(N(C)C(=O)[C@@H](C)[C@@H](O)c2ccc3ccccc3c2)c1` , reported inhibition: -0.07

Value of measured inhibition for the entry `COc1ccc(CN2C/C(=C/c3ccccc3)N3C(=O)C[C@@H](c4ccccc4)N=C23)c(OC)c1` : 4.01

// field: inhibition; key: `CN(CCO)c1cccc2c1S(=O)(=O)N(Cc1cn(Cc3ccc(C(F)(F)F)cc3)nn1)Cc1ccccc1O2` ; value = -1.94

* * *

biological target: Disintegrin and metalloproteinase domain-containing protein 17 (Homo sapiens) (UniProt P78536); test: inhibition of ADAM17 peptide cleavage – biochemical, QFRET, primary screen (AID 720648); conditions: recombinant ADAM17, EDANS/DABCYL FRET peptide cleavage; at 6.95 µM;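 further: 0% = DMSO-only wells as the low control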
Among all 370,000 compounds or so, about 3,100 (0.84%) were called active.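 The calls were made as follows: active = inhibition above the mean of compounds lying between control limits plus 3 SD, set per campaign (cut at about 8.5% in these data); inactive = the rest.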 The full list was thinned out, with actives kept by preference.
Answer with one of the outcomes given here: true (1) (active), false (0) (inactive)

Task item: Dear colleague, could you share the recorded outcome for `CC(C)C(=O)Nc1cccc(NC(=S)NC(=O)C(c2ccccc2)c2ccccc2)c1` when you have a moment?
Reply: true (1)

Task item: Fill in: this test's call for `CCOC(=O)c1c(S(=O)(=O)Nc2cccc(Cl)c2)c(C)n(C)c1C` is ___
Reply: false (0)

Task item: What is the recorded call for this molecule in the test? CCCC(=O)Nc1cccc(NC(=S)NC(=O)C(C)Oc2ccc(Cl)cc2Cl)c1 (stereo not given)
Reply: false (0)

Task item: Tell me the assay call for `CC(C)(C)c1ccc(C(=O)Nc2cc(Cl)c(Br)cc2C(=O)O)cc1` please.
Reply: false (0)

Task item: State the result this test recorded for `CCOC(=O)c1c(Cc2ccc(Cl)cc2)c[nH]c1C` .
Reply: true (1)

Task item: Write down the call the test reported for this molecule. Item: `O=C(Nc1nc2ccc(Cl)cc2s1)c1cc(-c2ccc(Cl)cc2)nc2ccccc12`
Reply: false (0)

Task item: What did the test return for `Cc1ccc(C)c(NC(=O)CCS(=O)(=O)c2ccccc2)c1` ?
Reply: false (0)

Task item: Name the outcome recorded for `COC(=O)[C@]12C[C@H](CC(=O)N3CCN(C(=O)C4CC4)CC3)C(=O)N(CCC3=CCCCC3)C1=C[C@H](C(C)C)O[C@@H]2C1CC1` in the assay.
Reply: false (0)

Task item: Recorded test outcome, item CCC(=O)c1c(CC)c2n3c1=CC[C@H]3CC(Br)C=2 (stereo not given in full)
Reply: false (0)

Task item: // param item: `COc1ccc(S(=O)(=O)N2CCCCC2)cc1Br` ; yields the recorded call
Reply: true (1)

* * *

target: Disintegrin and metalloproteinase domain-containing protein 17 (Homo sapiens); experiment: inhibition of ADAM17 peptide cleavage – biochemical, QFRET, primary screen (AID 720648); conditions: recombinant ADAM17, EDANS/DABCYL FRET peptide cleavage; at 6.95 µM;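 further: 0% = DMSO-only wells as the low control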
In all, about 370,000 compounds went through this assay and about 3,100 (0.84%) were called active.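 Rule for the calls: active = inhibition above the mean of compounds lying between control limits plus 3 SD, set per campaign (cut at about 8.5% in these data); inactive = the rest.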 Only a selection was taken, and actives are over-represented in it overall.
In this exercise, the only acceptable responses are active, inactive

> print(dat)
                               input.smiles     class
1  C=CC[C@@H](CC(=O)N[C@H](CO)Cc1ccccc1)C(=O)N[C@@H](COC(=O)[C@@H](CC=C)Cc1ccc(F)cc1)Cc1c[nH]c2ccccc12  inactive

Task item: Could you kindly confirm the outcome this assay logged for `C=CC[C@H](CC(=O)N(CCO)Cc1ccccc1)C(=O)N[C@@H](COC(=O)[C@@H](CC=C)Cc1ccc(F)cc1)Cc1ccccc1` ?
Reply: active

Task item: Hi team, can someone confirm the assay call for `C=CCC[C@H](Cc1ccc(F)cc1)C(=O)OC[C@@H](Cc1c[nH]c2ccccc12)NC(=O)[C@H](CC=C)CC(=O)N[C@H](CO)Cc1ccccc1` ?
Reply: inactive

* * *

target: Disintegrin and metalloproteinase domain-containing protein 17 (Homo sapiens) (UniProt P78536); assay: inhibition of ADAM17 peptide cleavage – biochemical, QFRET, primary screen (AID 720648); details: recombinant ADAM17, EDANS/DABCYL FRET peptide cleavage; at 6.95 µM;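 further: 0% = DMSO-only wells as the low control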
In all, about 370,000 compounds went through this assay and about 3,100 (0.84%) were called active.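 Rule for the calls: active = inhibition above the mean of compounds lying between control limits plus 3 SD, set per campaign (cut at about 8.5% in these data); inactive = the rest.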 This excerpt belongs to a sample that is enriched for actives.
Outcome field: choose from active, inactive

Worked set:
> print(dat)
                                   molecule     class
1  CCCNC(=O)C1CC(=O)N(c2ccc(OCc3ccccc3)cc2)C1 (stereo not given)  inactive
2  COc1cc(C2CC(=O)N3CN(Cc4ccccc4)CSC3=C2C#N)ccc1OCc1ccccc1 (stereo not given)    active
3  CN(C)CC(=O)N[C@@H]1C[C@@H]2O[C@H](CO)CC[C@@H]2O[C@@H]1CCc1ccc(C#Cc2ccccc2)cc1  inactive
4  O=C(CCS(=O)(=O)c1ccccc1)Nc1ccc(Cl)c(Cl)c1  inactive

We now examine a further molecule.
Task item: Query: recorded result category for COc1cc(C2C(C(=O)c3ccco3)=C(O)C(=O)N2c2cc(C)on2)ccc1OCc1ccccc1 (stereo not given) in this test
Reply: inactive
